Target: Adenosine 2a receptor (Homo sapiens, UniProt P29274)
Construct: expressed in transfected cells; host or cells: Chinese hamster ovary (CHO) cells, co-transfected with a CRE-SPAP reporter
Sequence (P29274 whole entry): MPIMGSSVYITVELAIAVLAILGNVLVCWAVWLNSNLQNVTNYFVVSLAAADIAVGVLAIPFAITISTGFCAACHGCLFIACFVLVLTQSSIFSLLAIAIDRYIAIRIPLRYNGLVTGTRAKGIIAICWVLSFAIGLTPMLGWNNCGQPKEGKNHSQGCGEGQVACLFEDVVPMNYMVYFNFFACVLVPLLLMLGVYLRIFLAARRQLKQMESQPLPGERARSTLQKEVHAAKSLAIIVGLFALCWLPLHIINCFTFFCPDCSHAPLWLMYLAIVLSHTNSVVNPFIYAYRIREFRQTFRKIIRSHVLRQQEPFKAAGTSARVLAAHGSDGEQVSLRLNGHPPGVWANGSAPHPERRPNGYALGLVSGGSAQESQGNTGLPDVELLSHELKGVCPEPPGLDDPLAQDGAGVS
Test: Agonist activity against adenosine 2a receptor subtype (CHO cells, cAMP response element/SPAP reporter)
Type: cell-based
Details: EC50 ratio to NECA; transfected CHO cells, basal cAMP reflected by SPAP
reported.metric: A2a (EC50 values as a ratio of that of NECA)

[[record]]
molecule = "CCCc1cc(C2OC(n3cnc4c(NC(CC)CC)nc(NCCN5CCCCC5)nc43)C(O)C2O)on1.O=CO.O=CO (stereo not drawn) [Example 56]"
observed_measurement = 5.19


(P) CCc1cc(C2OC(n3cnc4c(NC(CO)Cc5ccccc5)nc(NCCN5CCCCC5)nc43)C(O)C2O)on1 (stereo not drawn) [Example 45]
(Q) CCc1cc(C2OC(n3cnc4c(NCCC5CCCCC5)nc(NC(CO)Cc5ccccc5)nc43)C(O)C2O)on1 (stereo not drawn) [Example 22]
Input: Of the two listed items, which has the higher A2a (EC50 values as a ratio of that of NECA)? First: P Second: Q State the label of the item chosen.
Output: Q

---

Listed compounds paired with reported A3 (EC50 values as a ratio of that of NECA)
Target: Adenosine 3 receptor (Homo sapiens, UniProt P0DMS8)
Construct: expressed in transfected cells; host or cells: Chinese hamster ovary (CHO) cells, co-transfected with a CRE-SPAP reporter
Sequence (P0DMS8 1-318): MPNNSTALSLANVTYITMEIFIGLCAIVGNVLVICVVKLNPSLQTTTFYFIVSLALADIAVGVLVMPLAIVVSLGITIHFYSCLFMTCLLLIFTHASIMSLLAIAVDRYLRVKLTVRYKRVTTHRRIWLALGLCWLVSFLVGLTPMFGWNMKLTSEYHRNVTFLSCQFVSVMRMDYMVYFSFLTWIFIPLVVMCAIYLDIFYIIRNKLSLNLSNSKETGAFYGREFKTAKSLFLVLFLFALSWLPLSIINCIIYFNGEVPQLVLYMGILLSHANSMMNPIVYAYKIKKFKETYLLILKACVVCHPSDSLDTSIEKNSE
Experiment: Agonist activity against adenosine 3 receptor subtype (CHO cells, forskolin-enhanced cAMP, SPAP reporter)
Assay type: cell-based
Details: EC50 ratio to NECA; transfected CHO cells, forskolin-enhanced cAMP reflected by SPAP

Solved cases below.
[[record]]
compound = "CCc1cc(C2OC(n3cnc4c(NCC(c5ccccc5)c5ccccc5)nc(NC5CCC(NC(C)=O)CC5)nc43)C(O)C2O)on1 (stereo not drawn)"
observed_measurement = ">248"

[[record]]
compound = "CCc1cc([C@H]2O[C@@H](n3cnc4c(NC5CCOCC5)nc(NCCN5CCCCC5)nc43)[C@H](O)[C@@H]2O)on1.O=CO.O=CO"
observed_measurement = ">254"

[[record]]
compound = "CCc1cc(C2OC(n3cnc4c(NC(CO)C(C)C)nc(NC(CO)Cc5ccccc5)nc43)C(O)C2O)on1 (stereo not drawn)"
observed_measurement = ">158"

[[record]]
compound = "CCc1cc([C@H]2O[C@@H](n3cnc4c(NCCC(C)(C)C)nc(NCCN5CCCCC5)nc43)[C@H](O)[C@@H]2O)on1.O=CO.O=CO"
observed_measurement = ">395"

[[record]]
compound = "CCC(CC)Nc1nc(NCCN2CCCCC2)nc2c1ncn2C1OC(c2cc(C)no2)C(O)C1O.O=CO.O=CO (stereo not drawn)"
observed_measurement = ">353"

[[record]]
compound = "CCc1cc(C2OC(n3cnc4c(NC5CCCC5)nc(NCCN5CCCCC5)nc43)C(O)C2O)on1 (stereo not drawn)"
observed_measurement = ">310"

[[record]]
compound = "CCc1cc(C2OC(n3cnc4c(NCCc5ccccc5)nc(NCCN5CCCCC5)nc43)C(O)C2O)on1.O=CO.O=CO (stereo not drawn)"
observed_measurement = ">375"

[[record]]
compound = "CCc1cc(C2OC(n3cnc4c(NC5CCS(=O)(=O)CC5)nc(NC5CCC(N)CC5)nc43)C(O)C2O)on1 (stereo not drawn)"
observed_measurement = ">176"

[[record]]
compound = "CCc1cc(C2OC(n3cnc4c(NC(CO)Cc5ccccc5)nc(NCCN5CCOCC5)nc43)C(O)C2O)on1 (stereo not drawn)"
observed_measurement = ">340"

[[record]]
compound = "CCc1cc([C@H]2O[C@@H](n3cnc4c(NC(CC)CC)nc(NCCN5CCCCC5)nc43)[C@H](O)[C@@H]2O)on1.O=CO.O=CO"
observed_measurement = ">393"


Input: Looking for the measured A3 (EC50 values as a ratio of that of NECA) of CCc1cc([C@H]2O[C@@H](n3cnc4c(NCC(c5ccccc5)c5ccccc5)nc(N[C@H]5CC[C@H](N)CC5)nc43)[C@H](O)[C@@H]2O)on1.O=CO.O=CO (relative stereo) , can you help?
Output: >295

Input: Looking for the measured A3 (EC50 values as a ratio of that of NECA) of CCc1cc(C2OC(n3cnc4c(NCCC5CCCCC5)nc(NCCc5cn(C)cn5)nc43)C(O)C2O)on1.O=CO.O=CO (stereo not drawn) , can you help?
Output: >267

Input: Looking for the measured A3 (EC50 values as a ratio of that of NECA) of CCc1cc(C2OC(n3cnc4c(NCCS(=O)(=O)NC)nc(NC(CO)Cc5ccccc5)nc43)C(O)C2O)on1 (stereo not drawn) , can you help?
Output: >273

Input: Looking for the measured A3 (EC50 values as a ratio of that of NECA) of CCc1cc(C2OC(n3cnc4c(NCC(c5ccccc5)c5ccccc5)nc(NCCN5CCOCC5)nc43)C(O)C2O)on1 (stereo not drawn) , can you help?
Output: >545

Input: Looking for the measured A3 (EC50 values as a ratio of that of NECA) of CCCc1cc(C2OC(n3cnc4c(NC(CC)CC)nc(NCCN5CCCCC5)nc43)C(O)C2O)on1.O=CO.O=CO (stereo not drawn) , can you help?
Output: >525

Input: Looking for the measured A3 (EC50 values as a ratio of that of NECA) of `CCc1cc([C@H]2O[C@@H](n3cnc4c(NC(CC)CC)nc(NC5CCCC5)nc43)[C@H](O)[C@@H]2O)on1.O=CO` , can you help?
Output: >518

Input: Looking for the measured A3 (EC50 values as a ratio of that of NECA) of CCc1cc(C2OC(n3cnc4c(NCc5cccc(I)c5)nc(NCCc5cn(C)cn5)nc43)C(O)C2O)on1.O=CO.O=CO (stereo not drawn) , can you help?
Output: >267

Input: Looking for the measured A3 (EC50 values as a ratio of that of NECA) of `CCc1cc([C@H]2O[C@@H](n3cnc4c(NCC(c5ccccc5)c5ccccc5)nc(NCCNc5ccccn5)nc43)[C@H](O)[C@@H]2O)on1.O=CO.O=CO` , can you help?
Output: >1004

---

Molecular target: Adenosine 3 receptor (Homo sapiens, UniProt P0DMS8)
Construct: expressed in transfected cells; host or cells: Chinese hamster ovary (CHO) cells, co-transfected with a CRE-SPAP reporter
Experiment: Agonist activity against adenosine 3 receptor subtype (CHO cells, forskolin-enhanced cAMP, SPAP reporter)
Format: cell-based
Settings: EC50 ratio to NECA; transfected CHO cells, forskolin-enhanced cAMP reflected by SPAP
Listed compounds paired with reported A3 (EC50 values as a ratio of that of NECA)

Solved cases below.
[[record]]
compound = "CCc1cc(C2OC(n3cnc4c(N)nc(NCCc5ccc(S(N)(=O)=O)cc5)nc43)C(O)C2O)on1 (stereo not drawn)"
observed_measurement = ">460"

[[record]]
compound = "CCc1cc(C2OC(n3cnc4c(NC(CC)CC)nc(NCCc5ccccn5)nc43)C(O)C2O)on1 (stereo not drawn)"
observed_measurement = ">207"


Now for another entry.
Input: Looking for the measured A3 (EC50 values as a ratio of that of NECA) of CCc1cc(C2OC(n3cnc4c(NC(CC)CC)nc(NCCN5CCOCC5)nc43)C(O)C2O)on1.O=CO.O=CO (stereo not drawn) , can you help?
Output: >737

---

Biological target: Adenosine 2a receptor (Homo sapiens, UniProt P29274)
Construct: expressed in transfected cells; host or cells: Chinese hamster ovary (CHO) cells, co-transfected with a CRE-SPAP reporter
Assay: Agonist activity against adenosine 2a receptor subtype (CHO cells, cAMP response element/SPAP reporter)
Format: cell-based
Settings: EC50 ratio to NECA; transfected CHO cells, basal cAMP reflected by SPAP
reported.metric: A2a (EC50 values as a ratio of that of NECA)

(1) CCc1cc(C2OC(n3cnc4c(NC5CCOCC5)nc(NC(CO)Cc5ccccc5)nc43)C(O)C2O)on1 (stereo not drawn)
(2) CCc1cc(C2OC(n3cnc4c(NCCC(C)(C)C)nc(NCCN5CCOCC5)nc43)C(O)C2O)on1 (stereo not drawn)
(3) CCc1cc(C2OC(n3cnc4c(NC(CO)Cc5ccccc5)nc(NCCN5CCCC5)nc43)C(O)C2O)on1 (stereo not drawn)
(4) CCc1cc(C2OC(n3cnc4c(NC(CO)C(C)C)nc(NC(CO)Cc5ccccc5)nc43)C(O)C2O)on1 (stereo not drawn)
Input: Reorder the items by A2a (EC50 values as a ratio of that of NECA), least to greatest. API: response body holds the labels in the requested order.
Output: 1, 4, 3, 2

(P) CCc1cc(C2OC(n3cnc4c(NC5CCCC5)nc(NCCN5CCCCC5)nc43)C(O)C2O)on1 (stereo not drawn)
(Q) CCc1cc(C2OC(n3cnc4c(NC5CCS(=O)(=O)CC5)nc(NCCN5CCCCC5)nc43)C(O)C2O)on1.O=CO.O=CO (stereo not drawn)
(R) CCc1cc(C2OC(n3cnc4c(NCCc5ccccc5)nc(NCCN5CCCCC5)nc43)C(O)C2O)on1.O=CO.O=CO (stereo not drawn)
Input: Ascending sort, A2a (EC50 values as a ratio of that of NECA). API: response body holds the labels in the requested order.
Output: P, R, Q
(P: 0.67, R: 1.32, Q: 10.59)

(a) CCc1cc(C2OC(n3cnc4c(NCc5ccccc5)nc(NCCN5CCCCC5)nc43)C(O)C2O)on1.O=CO.O=CO (stereo not drawn)
(b) CCc1cc(C2OC(n3cnc4c(NCCS(=O)(=O)NC)nc(NC(CO)Cc5ccccc5)nc43)C(O)C2O)on1 (stereo not drawn)
Input: Could you determine which record has the numerically smaller A2a (EC50 values as a ratio of that of NECA)? Candidates: a and b State the label of the item chosen.
Output: b
